# Test system: T1, CD134 expressed on the cell surface of HT1080_OX40 cells (human, UniProt P43489 29-277)
# T1 construct: whole, on cells; species not restated for the HT1080 transfectant
# T1 sequence (looked up): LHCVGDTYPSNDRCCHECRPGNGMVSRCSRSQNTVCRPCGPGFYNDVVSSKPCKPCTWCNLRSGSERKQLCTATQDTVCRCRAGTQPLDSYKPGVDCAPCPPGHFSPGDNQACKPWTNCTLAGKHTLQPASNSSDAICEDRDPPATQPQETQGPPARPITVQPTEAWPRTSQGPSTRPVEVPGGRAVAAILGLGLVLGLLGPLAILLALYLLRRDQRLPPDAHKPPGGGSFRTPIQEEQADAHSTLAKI
# Measurement protocol: HT1080_OX40 cells, imaging; further: test concentration or dose not given here
Below, each entry is listed alongside its reported Cellular binding assay [RFU].
Provide the reading as a plain figure in RFU.

Take a look at these entries with their results.
# Binder, Cellular binding assay [RFU] / RFU
data = [
    ("P018.S.11.A.D03 (antibody, V domains shown, V regions on human Ig constant parts; also called AB134_30) VH: QEQLKETGGGLVQPGGSLTLSCKASGFDFSSGYMSWVRQAPGKGLEWIGYIDPVFGSTYYASWVNGRFAISSHNAQNTLYLQLNSLTAADTATYFCARDLRAFYSGWGGINLWGPGTLVTVSS VL: AAVLTQTPSPVSAAVGGTVTIKCQSSQIVVNNNFLSWYQQKPGQPPKLLIYDASNLASGVPDRFSGSGSGTQFTLTISGVQSDDAATYYCLGGYDDDAENAFGGGTEVVVQ", 482),
    ("P018.S.05.A.F05 (as anti-CD134 antibody) (antibody, V domains shown, V regions on human Ig constant parts; also called AB134_16) VH: QSVEESGGRLVTPGTPLTLTCTVSGFSLSNYYMTWVRQAPGKGLEYIGIIGSGVSTYYANWAKGRFTISKASSTTVDLKMTSPTTEDTATYFCARDMYVGNWGDWGLWGQGTLVTVSS VL: AYDMTQTPASVEVAVGGTVTIKCQASQSISNNLNWYQQKPGQPPKLLIYSVSTLASGVPSRFKGSGSGTDYTLTISGVESVDAATYYCQQDYRIGDLDSAFGGGTEVVVK", 392),
]

# input for lookup
Which Cellular binding assay [RFU] value belongs to P018.S.04.A.H05 (antibody, V domains shown, V regions on human Ig constant parts; also called AB134_15) VH: QSVEESGGRLVTPGTPLTLTCTVSGFSLSSYAMGWVRQAPGKGLEWIGWINTAGGTDYTSWAKGRFTISKTSTTVDLKVTSLTTEDTATYFCARYDYYYFDLWGQGTLVTVSS VL: AQVLTQTASSVSAAVGGTVTISCQSSQSVYDNNWLAWYQQKPGQPPKLLIYSASTLASGVPSRFKGSGSGTEFTLTISDLESDDAAAYYCHGVYSGSIHAFGGGTEVVVI ?
451
